The reported numbers originate from the Deep4Chem optical property database.

# assay.protocol: photoluminescence quantum yield (fraction); solvent given as SMILES
# applied.conditions: in ClCCl
measured.parameter: photoluminescence quantum yield

N#Cc1ccc(-n2c(-c3ccc(-c4ccc(-c5nc6c7ccccc7c7ccccc7c6n5-c5ccc(C#N)c6ccccc56)c5ccccc45)c4ccccc34)nc3c4ccccc4c4ccccc4c32)c2ccccc12 :: 0.9
CCCCCCOc1cc(N(CC)CC)ccc1/C=C(\C#N)c1ccc(/C=C/C(=C(C#N)C#N)c2ccc(N(c3ccccc3)c3ccccc3)cc2)s1 :: 0.027
CCCCN(CCCC)c1ccc(C#Cc2cc(C#Cc3c(F)c(F)c(F)c(F)c3F)c(C#Cc3ccc(N(CCCC)CCCC)cc3)cc2C#Cc2c(F)c(F)c(F)c(F)c2F)cc1 :: 0.14
CC(=O)c1ccc(-c2cc(C)[o+]c(C)c2)cc1 :: 0.03
O=c1c2ccccc2nc2ccccn12 :: 0.96

(A) CN(C)c1ccc(/C=C/c2cc(/C=C/c3ccc(N(C)C)cc3)ncn2)cc1
(B) N#CC(C#N)=Cc1ccc(-c2ccc(O)c(-c3nc4ccccc4s3)c2)o1
Challenge: Lab note: record which item had the higher photoluminescence quantum yield, A or B . Please reply using the label of the selected record.
Response given: A

* * *

# assay.protocol: photoluminescence quantum yield (fraction); solvent given as SMILES
# applied.conditions: in CO
measured.parameter: photoluminescence quantum yield

CCC1=C(C)C(=O)n2c1cc1[nH]c(C(=O)OC(C)(C)C)c(C)c1c2=O :: 0.71
Cn1ccc(-c2nc3ccccc3nc2/C=C/N2CCCC2)c1 :: 0.006
CCOC(=O)CC[N+]1=c2cc3c(cc2CCC1)=Cc1c(c2ccc(N(C)C)cc2oc1=O)O3 :: 0.152
C#CCOc1ccc(/C=C/C2=[N+]3C(=C(c4ccc(N(C)C)cc4)c4c(C)cc(C)n4[B-]3(F)F)C(C)=C2)cc1 :: 0.66
CCCCN1C(=O)C(=C/C=C/C=C/C=C2N(CCCC)c3ccccc3N2CCCC)C(=O)N(CCCC)C1=S :: 0.056
Cc1cc(C)c(B(c2ccsc2-c2sccc2P(=O)(c2ccccc2)c2ccccc2)c2c(C)cc(C)cc2C)c(C)c1 :: 0.52
O=C1/C(=C2\Sc3ccccc3C2=O)Sc2ccccc21 :: 0.035
CC1=CC(C)=[N+]2C1=C(c1ccc3cccnc3n1)c1c(C)cc(C)n1[B-]2(F)F :: 0.16

(P) N#Cc1cccc(-c2nc(-c3ccccc3)c(-c3ccccc3)[nH]2)c1
(Q) Clc1nc(Cl)nc(Nc2cc3ccc4cccc5ccc(c2)c3c45)n1
Challenge: Between the entries labelled P and Q , which has a larger photoluminescence quantum yield value on record? State your choice using its label.
Response given: P
(P: 0.2, Q: 0)

* * *

# assay.protocol: photoluminescence quantum yield (fraction); solvent given as SMILES
# applied.conditions: in CC#N
measured.parameter: photoluminescence quantum yield

Here are 2 compounds together with their reported answers.
COc1ccc(C#Cc2ccc(C#Cc3ccc(P(=O)(c4ccc(C#Cc5ccc(C#Cc6ccc(OC)cc6)cc5)cc4)c4ccc(C#Cc5ccc(C#Cc6ccc(OC)cc6)cc5)cc4)cc3)cc2)cc1 :: 0.79
C(=C\c1ccc(Nc2ccccc2)cc1)/c1ccccc1 :: 0.3

(A) COC(=O)c1cccc2c1C#Cc1c(NC(C)=O)cccc1OCCCO2
(B) C[C@]12SC(=O)C=C1c1nc(-c3ccc(Cl)cc3Cl)[nH]c1C1=CC(=O)S[C@@]12C
(C) CC1=C(C#Cc2ccccc2)C2=Cc3c(C#Cc4ccccc4)c(C)c(C)n3[B-](F)(F)[N+]2=C1C
(D) CN(C)c1ccc2nc(-c3ccc(/C=N/Nc4ccccc4)cc3)sc2c1
Challenge: Highest photoluminescence quantum yield first, then in falling order down to the smallest. Use the labels to give the requested order.
Response given: C, A, B, D

* * *

# assay.protocol: photoluminescence quantum yield (fraction); solvent given as SMILES
# applied.conditions: in ClCCl
measured.parameter: photoluminescence quantum yield

CCCCCCCCCCCCN1C(=O)c2c(c3ccc4cc(-c5ccccc5)c(OC)cc4c3c3c2ccc2cc(-c4ccccc4)c(OC)cc23)C1=O :: 0.148

(1) C(S/C=C/c1ccc(-c2ccc(/C=C/SC=C(c3ccccc3)c3ccccc3)cc2)cc1)=C(c1ccccc1)c1ccccc1
(2) COc1ccc(-c2c3cc4ccccc4cc3c(C#Cc3ccccc3)c3cc4cc(C)sc4cc23)cc1
Challenge: Consider 1 and 2 . Which of these has its photoluminescence quantum yield at a higher number? Pick one and reply with its label.
Response given: 2

* * *

# assay.protocol: photoluminescence quantum yield (fraction); solvent given as SMILES
# applied.conditions: in ClC(Cl)Cl
measured.parameter: photoluminescence quantum yield

Please review the entries below; each comes with its answer.
Cc1ccccc1C(=O)NN1C2=C(CC3=C1CC(C)(C)CC3=O)C(=O)CC(C)(C)C2 :: 0.64
COc1ccc(C#Cc2ccc(C#Cc3ccc(P(=O)(c4ccc(C#Cc5ccc(C#Cc6ccc(OC)cc6)cc5)cc4)c4ccc(C#Cc5ccc(C#Cc6ccc(OC)cc6)cc5)cc4)cc3)cc2)cc1 :: 0.77
C#CCn1c2ccccc2c2cc(/C=C/c3c(Cl)c(C)c4n3[B-](F)(F)[N+]3=C(C)C(Cl)=C(C)C3=C4c3ccc(I)cc3)ccc21 :: 0.62
CCn1c2ccccc2c2cc3c(cc21)c1ccccc1n3CC :: 0.13

(1) FC(F)(F)c1ccc2oc3nc4oc5ccc(-n6c7ccccc7c7ccccc76)cc5c4cc3c2c1
(2) CN(C)c1ccc(-c2ccc(-c3cc(-c4ccccc4)c(-c4ccccc4)c(-c4ccccc4)c3-c3ccccc3)s2)cc1
Challenge: Which record would sort first by descending photoluminescence quantum yield, 1 or 2 ? Answer by stating the label of the chosen item.
Response given: 2

* * *

# assay.protocol: photoluminescence quantum yield (fraction); solvent given as SMILES
# applied.conditions: in ClC(Cl)Cl
measured.parameter: photoluminescence quantum yield

Observe how each entry below is paired with its result.
CCC1=C(C)C(=O)n2c1cc1[nH]c(C(=O)OC(C)(C)C)c(C)c1c2=O :: 0.72
N#Cc1nc(N(Cc2ccccc2Cl)Cc2ccccc2Cl)c(C#N)nc1N(Cc1ccccc1Cl)Cc1ccccc1Cl :: 0.78

(I) CN(C)c1ccc2nc(-c3ccc(C(=O)O)cc3)sc2c1
(II) CCCCCCn1c2cc(/C=C(\C#N)c3ccccc3)ccc2c2ccc(/C=C(\C#N)c3ccccc3)cc21
Challenge: For the pair I and II , which entry has the numerically smaller recorded photoluminescence quantum yield? Bench note: the answer is the label of the chosen record.
Response given: II
(II: 0.026, I: 0.96)

* * *

# assay.protocol: photoluminescence quantum yield (fraction); solvent given as SMILES
# applied.conditions: in C1CCCCC1
measured.parameter: photoluminescence quantum yield

For orientation, consider the following solved cases.
COc1c2ccccc2c(OC)c2c1c1cccc(OC)c1n2C :: 0.39
O=S1(=O)c2ccc(-c3c4ccccc4cc4ccccc34)cc2-c2cc(-c3c4ccccc4cc4ccccc34)ccc21 :: 0.39

(I) CN(C)c1ccc2nc(-c3ccc(/C=N/Nc4ccccc4)cc3)sc2c1
(II) COc1ccc(C2=C(c3ccc(OC)cc3)C(C)(C)c3c2ccc2ccccc32)cc1
(III) CCCCc1cc2cccc3cc(CCCC)c4cc(-c5cc6[b-]7c(c5)c(CCCC)cc5cccc(cc6CCCC)[n+]75)cc1[b-]4[n+]23
(IV) CCN(CC)c1ccc2c(c1)oc(=O)c1c(C)nc3c(cnn3-c3ccccc3)c12
(V) COc1c2ccccc2c(OC)c2c1c1cc(F)ccc1n2C
Challenge: Place the items in sequence of falling photoluminescence quantum yield. Note for the reader: the ranking is given by listing the labels in the order requested.
Response given: IV, V, II, III, I

(I) COc1cc(OC)c2c(c1)C(=O)c1ccccc1-2
(II) N#Cc1cc(C#N)c(-c2ccc(N(c3ccccc3)c3ccccc3)cc2)cc1-c1ccc(N(c2ccccc2)c2ccccc2)cc1
Challenge: For the pair I and II , which entry has the numerically smaller recorded photoluminescence quantum yield? Please reply using the label of the selected record.
Response given: I

* * *

# assay.protocol: photoluminescence quantum yield (fraction); solvent given as SMILES
# applied.conditions: in C1COCCO1
measured.parameter: photoluminescence quantum yield

Nc1ccc2c(c1)C(=O)NC2=O :: 0.73
CN(C)c1ccc(/C=C/C=C/C2=NC3C(=O)NC(N)=NC3N2[C@H]2C[C@H](O)[C@@H](CO)O2)cc1 (stereo partly drawn) :: 0.7
O=C1/C(=C\c2ccc3oc4ccccc4c3c2)S(=O)(=O)c2ccccc21 :: 0.047
CCOC(=O)CSc1nc(-c2ccccc2)c(C)c(C#N)c1C#N :: 0.031
CC(=O)c1c2c(cc3ccc(N(C)C)cc13)CCC2 :: 0.46
CN(C)c1ccc(/C=C/c2ccccn2)cc1 :: 0.031
COc1nc(Nc2ccc3c4cccc5cccc(c6cccc2c63)c54)nc(OC)n1 :: 0.51
COC(=O)c1nc2cnc(N)nc2n1Cc1ccccc1 :: 0.64
COc1ccc(C#Cc2ccc(C#Cc3ccc(P(=O)(c4ccc(C#Cc5ccc(C#Cc6ccc(OC)cc6)cc5)cc4)c4ccc(C#Cc5ccc(C#Cc6ccc(OC)cc6)cc5)cc4)cc3)cc2)cc1 :: 0.89
COc1ccc(-c2nc(N)nc(C#N)c2C#N)cc1OC :: 0.0073

(A) Nc1ncnc2c1c(-c1ccc3ccccc3c1)nn2[C@H]1C[C@H](O)[C@@H](CO)O1
(B) Clc1nc(Cl)nc(Nc2ccc3cc4ccccc4cc3c2)n1
Challenge: Given the listed records, identify the one among A and B with higher photoluminescence quantum yield. Bench note: the answer is the label of the chosen record.
Response given: A
(A: 0.11, B: 0)
